Tested on: CAKI-1 renal
METHOD_DESCRIPTION: NCI tumour cell line growth inhibition, 48 h
OBSERVED_PROPERTY: GI50

1. O=C(C[P+](c1ccccc1)(c1ccccc1)c1ccccc1)C[P+](c1ccccc1)(c1ccccc1)c1ccccc1
161 nM
2. Cc1ccc(-c2nc([P+](c3ccccc3)(c3ccccc3)c3ccccc3)c(Nc3ccccc3)o2)cc1
1080 nM
3. Cc1ccc(NCCN(C)C)c2c(=O)c3ccccc3sc12
2080 nM
4. COc1cc(/C=C/c2cc(/C=C/c3ccc(O)c(OC)c3)n(C(=O)Nc3ccc(Cl)cc3)n2)ccc1O
401 nM
5. Cc1ccc(-c2nc(-c3cn(C)c4ncccc34)cs2)cc1
2270 nM
6. Cc1cn(-c2ccc(S(C)(=O)=O)cc2)c(-c2ccc(Cl)cc2)n1
> 100000 nM
7. O=S(=O)(Nc1ccc(F)c(Cl)c1)c1ccc(-c2cnc(C3CC3)o2)cc1
179 nM
8. CN1CCN(Cc2ccc3c(NNC(=O)c4ccccc4)nc4cc(F)ccc4n23)CC1
248 nM
9. COc1cc(NCCN=C(N)NC(N)=NC(C)C)c2ncccc2c1
> 100000 nM
10. COc1ccccc1NS(=O)(=O)c1ccc2oc(SC(C)C)nc2c1
17000 nM
11. Cc1cnc(Nc2ccc(N3CCN(C)CC3)cc2)nc1Nc1ccc(Cl)c(NS(=O)(=O)C(C)(C)C)c1
62.1 nM
12. O=C(/C=C/C12c3ccccc3C(c3ccccc31)C1C(=O)NC(=O)C12)c1ccc(Cl)cc1 (stereo not given)
1240 nM
13. CCS(=O)(=O)c1ccc(OC)c(Nc2ncc(-c3ccccc3Cl)o2)c1
24300 nM
14. NC(=S)N=Nc1c(O)c2ccccc2c2ccccc12
37900 nM
15. CNS(=O)(=O)OCC1OC(n2cnc3c(N)ncnc32)C(O)C1O (stereo not given)
> 100000 nM
16. O=C(CC(=O)c1cccc(Cl)c1)c1cccc(Cl)c1
1610 nM
17. COc1cccc(/C(C)=N/NC(=O)CSc2nc3ccccc3c(=O)n2CCc2ccc(S(N)(=O)=O)cc2)c1
3700 nM
18. O=C(N/N=C/c1cc(Cl)cc(Cl)c1[O-])c1ccccc1.O=C(N/N=C/c1cc(Cl)cc(Cl)c1[O-])c1ccccc1.[Co+2]
21700 nM
19. O=C(c1ccccc1)n1c(-c2ccccc2)cs/c1=N\S(=O)(=O)c1ccc(N2N=C3c4ccccc4CC3C2c2cccs2)cc1 (stereo not given)
38000 nM
20. COc1ccc(Nc2nc3cc(N)cc(N)c3nc2-c2ccccc2)cc1OC
18300 nM

###

Tested on: UACC-62 melanoma
METHOD_DESCRIPTION: NCI tumour cell line growth inhibition, 48 h
Known TGI of a selection of compounds
OBSERVED_PROPERTY: TGI (µM)

1) O=[N+]([O-])/C(C(Cl)=C(Cl)Cl)=C(\N1CCCCC1)n1nnc2ccccc21
36.7
2) O=C(C[P+](c1ccccc1)(c1ccccc1)c1ccccc1)C[P+](c1ccccc1)(c1ccccc1)c1ccccc1
0.865
3) COc1nc2c(c(=O)n1C)N=C(c1ccc(Cl)cc1)CC(c1ccccc1)N2 (configuration not stated)
37.6
4) Nc1c2c(nc3ccccc13)-c1ccccc1NCCC2
41.2
5) CCOC(=O)C1([Se]c2ccccc2)CCCC1=O (configuration not stated)
35.2
6) ClCc1cccc(CSc2ncnc3c2ncn3Cc2cccc(CCl)c2)c1
3.46
7) C=CCc1cc(C(Cc2ccccc2)NC(C)C)cc(OCc2ccccc2)c1OCc1ccccc1 (configuration not stated)
28.4
8) CCCCCCCC(=O)OCC(=O)[C@]1(O)Cc2c(O)c3c(c(O)c2[C@@H](OC2CC(N)C(O)C(C)O2)C1)C(=O)c1c(OC)cccc1C3=O (some centres not stated)
0.494
9) O=C(Nc1ccccc1O)c1ccc(NS(=O)(=O)c2cccc3cccnc23)cc1
3.49
10) CCN(CC)CCn1[nH]c2c3ccc(=O)cc3sc3c(NCCN)ccc1c32
1.48
11) COc1ccc(Nc2nc3cc(N)cc(N)c3nc2-c2ccccc2)cc1OC
27.4
12) O=S(=O)(/N=C(\NO)Nc1ccc(Cl)cc1)c1ccccc1
36.9
13) COc1ccc2c3c1OC1C34CCN(C)C(C2)C4=CC(I)C1(OC)OC (configuration not stated)
28
14) CN(C(=O)Cc1cc(Cl)c(Cl)cc1NC(=O)CN)[C@H]1CCCC[C@@H]1N1CCCC1
30.2
15) CCOC(=O)c1cc(C2CCN(c3ccccc3)C2=O)c(C(=O)/C=C(/C)N)[nH]1 (configuration not stated)
40.1
16) CN(C)CCNC(=O)c1cccc2ccc(-c3ccc(-c4ccccc4)cc3)nc12
32.2

###

Tested on: UACC-62 melanoma
METHOD_DESCRIPTION: NCI tumour cell line growth inhibition, 48 h
Listed next: entries and their corresponding TGI.
OBSERVED_PROPERTY: TGI

1) Cc1ccc(NC(=O)/C(=N/N(C)C)C(C2OC(=O)c3ccccc32)[N+](=O)[O-])cc1 (stereo not given)
> 100 µM
2) COc1cccc2cc(C(C)=O)c(=O)oc12
> 100 µM
3) COc1cc(NCCN=C(N)NC(N)=NC(C)C)c2ncccc2c1
94.6 µM
4) COc1ccc(N2C(=O)C3c4[nH]c5ccc(F)cc5c4C4CCC(C(C)(C)C)CC4C3C2=O)cc1 (stereo not given)
> 10 µM
5) CCOC(=O)c1cnn2c3ccccc3n(S(=O)(=O)c3ccc(OC)cc3)c12
> 100 µM
6) CCN(CC)CCCNc1[nH]ncc2c(C)c3nc4ccc(OC)cc4c3cc12
2.74 µM
7) COc1cc2ccc1OCc1cccc(n1)COc1ccc(cc1OC)C=NCCNCCNCCN=C2
> 100 µM
8) C#COc1cccc(Nc2ncnc3cc(NC(=O)[C@H](C)Cl)ccc23)c1
> 62.5 µM
9) CCCCCCCCCCCCCC(=O)CSCCNC(=O)CCNC(=O)[C@@H](O)C(C)(C)COP(=O)(O)OP(=O)(O)OCC1OC(n2cnc3c(N)ncnc32)C(O)C1OP(=O)(O)O (stereo not given in full)
29.5 µM
10) COc1ccc2c3c([nH]c2c1)CCN(Cc1ccccc1)C3
> 100 µM

###

Test system: HCT-15 colon
METHOD_DESCRIPTION: NCI tumour cell line growth inhibition, 48 h
OBSERVED_PROPERTY: TGI

1. Nc1c2c(nc3ccccc13)-c1ccccc1NCCC2
> 100 µM
2. Cc1cc(=O)[nH]c(CNC(=O)c2cccc(C(=O)NCc3cc(=O)[nH]c(C)n3)c2)n1
> 100 µM
3. Cc1cc(Nc2cc(N3CCN(C)CC3)nc(Sc3ccc(NC(=O)C4CC4)cc3)n2)n[nH]1
> 10 µM
4. O=[N+]([O-])/C(C(Cl)=C(Cl)Cl)=C(\N1CCCCC1)n1nnc2ccccc21
39.1 µM
5. CC(=O)NNc1nc(C)c(C(=O)NNC(=O)C(=O)Nc2ccc([N+](=O)[O-])cc2C#N)s1
> 100 µM
6. CC(C)(C)C1=CC(=C2C=Cc3ccccc3O2)C=C(C(C)(C)C)C1=O
19.3 µM
7. COC1C2c3cc4c(cc3CC(C#N)(c3ccccc32)N1C(=O)c1ccccc1)OCO4 (configuration not stated)
> 100 µM

###

Item-by-item account of TGI
System: LOX IMVI melanoma
METHOD_DESCRIPTION: NCI tumour cell line growth inhibition, 48 h
OBSERVED_PROPERTY: TGI

1) O=C(Nc1sccc1S(=O)(=O)c1ccccc1)c1ccccc1
> 100 µM
2) COC(=O)/C=c1\s/c(=C\C(=O)OC)c2ccccc12
> 100 µM
3) CCS(=O)(=O)c1ccc(OC)c(Nc2ncc(-c3ccccc3Cl)o2)c1
> 25 µM
4) O=S(=O)(/N=C(\NO)Nc1ccc(Cl)cc1)c1ccccc1
33.6 µM
5) COc1cc(C2C3=C(COC3=O)N(CCO)c3cc4c(cc32)OCO4)cc(OC)c1O (stereo unspecified)
> 50 µM
6) COc1c2c(cc3c1C1(O)Cc4ccc5c(c4C[N+]1(C)CC3)OCO5)OCO2 (stereo unspecified)
> 100 µM

###

Catalogue of TGI readings, one per entry.
System: HCC-2998 colon
METHOD_DESCRIPTION: NCI tumour cell line growth inhibition, 48 h
OBSERVED_PROPERTY: TGI

1. O=C(Nc1sccc1S(=O)(=O)c1ccccc1)c1ccccc1
> 100 µM
2. NC1Cc2ccccc2OC1=O (stereo unspecified)
> 100 µM
3. Nc1ccccc1C#C/C=C\C#Cc1c(F)c(F)c(F)c(F)c1F
37.6 µM
4. C=CCc1cc(C(Cc2ccccc2)NC(C)C)cc(OCc2ccccc2)c1OCc1ccccc1 (stereo unspecified)
26.7 µM
5. CC1=C[C@H]2C[C@H](C)[C@H]3CC[C@H](C)[C@]4(C1)C(=O)C(O)=C(C)C(=O)[C@@]324
47.2 µM
6. CC/C=C/C[C@H](O)[C@H]1C[C@H]2O[C@H](CC(=O)OC)C[C@H]2O1
> 100 µM
7. CC(C)/C(=N\[N+](C)(C)C)c1ccccc1
> 100 µM
8. Cc1ccc(NCCN(C)C)c2c(=O)c3ccccc3sc12
2.92 µM
9. C[C@@H]1COCCN1c1cc(C2([S@@](C)(=N)=O)CC2)nc(-c2ccnc3[nH]ccc23)n1
> 100 µM
10. COc1cc(/C=C/c2cc(/C=C/c3ccc(O)c(OC)c3)n(C(=O)Nc3ccc(Cl)cc3)n2)ccc1O
6.01 µM
11. Cc1cccc2c(N)c3cccc(C(=O)NCC[N+]4(Cc5ccc([N+](=O)[O-])cc5)CCOCC4)c3nc12
60.5 µM
12. C#CCN(C(=O)C(F)(F)F)c1ccc(C(=O)c2ccc(N(CC#C)C(=O)C(F)(F)F)cc2)cc1
> 100 µM
13. CN(/N=C/c1cccc2cccnc12)c1c([N+](=O)[O-])cc([N+](=O)[O-])cc1[N+](=O)[O-]
> 100 µM
14. CC1(C)CCCCCC(C)(CCCO)C1=O (stereo unspecified)
> 100 µM
15. Cc1cn(-c2ccc(S(C)(=O)=O)cc2)c(-c2ccc(Cl)cc2)n1
> 100 µM
16. CCOC(=O)Cc1cnc(NC(NC(=O)CC)(C(F)(F)F)C(F)(F)F)s1
> 100 µM
17. C(=Nc1ccc(-c2nc3ccccc3[nH]2)cc1)c1ccco1
> 100 µM
18. CCCN(CCC)c1c([N+](=O)[O-])cc(C(=O)N(CCO)CCO)cc1[N+](=O)[O-]
> 100 µM
19. Cc1cc(O)c(/C=N/C(=S)Nc2ccccc2)c(=O)o1
> 100 µM
20. NC(=Nc1cccc(Cl)c1)c1ccccc1N
> 100 µM
21. C#CC1(O)CCC2[C@@H]3CCc4cc(Oc5nc(F)nc(-c6c7ccccc7cn6C)n5)ccc4C3CC[C@@]21C (stereo partly specified)
> 100 µM
